# assay_system: Porcine pancreatic lipase, type II (Sus scrofa, UniProt P00591)
# Construct: purchased Merck Millipore / Sigma-Aldrich L-3126
# Sequence (P00591 whole entry): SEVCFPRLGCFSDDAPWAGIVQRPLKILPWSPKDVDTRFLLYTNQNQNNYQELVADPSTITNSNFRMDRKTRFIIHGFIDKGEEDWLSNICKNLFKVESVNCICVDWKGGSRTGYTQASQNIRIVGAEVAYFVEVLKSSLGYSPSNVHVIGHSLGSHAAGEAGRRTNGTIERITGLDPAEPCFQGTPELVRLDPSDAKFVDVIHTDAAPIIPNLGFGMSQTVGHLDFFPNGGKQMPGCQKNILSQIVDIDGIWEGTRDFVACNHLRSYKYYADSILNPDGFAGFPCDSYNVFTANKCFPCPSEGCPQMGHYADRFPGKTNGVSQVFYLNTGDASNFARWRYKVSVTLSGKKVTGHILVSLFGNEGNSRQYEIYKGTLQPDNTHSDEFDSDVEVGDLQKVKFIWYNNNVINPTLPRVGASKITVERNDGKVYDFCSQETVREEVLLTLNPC
# assay_overview: Pancreatic lipase inhibition assay (spectrophotometric, p-NPP substrate)
# Type: biochemical
pIC50: −log10 of the molar value.
value_type: pIC50

{"columns": ["structure_smiles_string", "pIC50"],
 "data": [
  ["CCC(=O)Oc1cc2oc(-c3ccccc3)cc(=O)c2c(OC(=O)CC)c1OC(=O)CC", "< 3.30"],
  ["CCOc1cc2oc(-c3ccccc3)cc(=O)c2c(O)c1OCC", "< 3.30"],
  ["CC(=O)Oc1cc2oc(-c3ccccc3)cc(=O)c2c(OC(C)=O)c1OC(C)=O", "< 3.30"],
  ["COc1cc(OC)c2c(=O)cc(-c3ccc(OC)c(OC)c3)oc2c1", 3.57],
  ["CCOc1cc(O)c2c(=O)cc(-c3ccc(OC)c(OCC)c3)oc2c1", "< 3.30"]
]}

Attention now turns to another entry.
Let me check: C=CCOc1cc2oc(-c3ccccc3)cc(=O)c2c(O)c1OCC=C , system Porcine pancreatic lipase, type II (Sus scrofa, UniProt P00591), measured pIC50 is 3.47

Source of measurements: paper PMC10830309
